All figures here come from paper PMC7312375.

- SYSTEM_NAME: TRPA1 (Homo sapiens, UniProt O75762)
- Construct: host or cells: HEK293
- Sequence (O75762 whole entry, species assumed): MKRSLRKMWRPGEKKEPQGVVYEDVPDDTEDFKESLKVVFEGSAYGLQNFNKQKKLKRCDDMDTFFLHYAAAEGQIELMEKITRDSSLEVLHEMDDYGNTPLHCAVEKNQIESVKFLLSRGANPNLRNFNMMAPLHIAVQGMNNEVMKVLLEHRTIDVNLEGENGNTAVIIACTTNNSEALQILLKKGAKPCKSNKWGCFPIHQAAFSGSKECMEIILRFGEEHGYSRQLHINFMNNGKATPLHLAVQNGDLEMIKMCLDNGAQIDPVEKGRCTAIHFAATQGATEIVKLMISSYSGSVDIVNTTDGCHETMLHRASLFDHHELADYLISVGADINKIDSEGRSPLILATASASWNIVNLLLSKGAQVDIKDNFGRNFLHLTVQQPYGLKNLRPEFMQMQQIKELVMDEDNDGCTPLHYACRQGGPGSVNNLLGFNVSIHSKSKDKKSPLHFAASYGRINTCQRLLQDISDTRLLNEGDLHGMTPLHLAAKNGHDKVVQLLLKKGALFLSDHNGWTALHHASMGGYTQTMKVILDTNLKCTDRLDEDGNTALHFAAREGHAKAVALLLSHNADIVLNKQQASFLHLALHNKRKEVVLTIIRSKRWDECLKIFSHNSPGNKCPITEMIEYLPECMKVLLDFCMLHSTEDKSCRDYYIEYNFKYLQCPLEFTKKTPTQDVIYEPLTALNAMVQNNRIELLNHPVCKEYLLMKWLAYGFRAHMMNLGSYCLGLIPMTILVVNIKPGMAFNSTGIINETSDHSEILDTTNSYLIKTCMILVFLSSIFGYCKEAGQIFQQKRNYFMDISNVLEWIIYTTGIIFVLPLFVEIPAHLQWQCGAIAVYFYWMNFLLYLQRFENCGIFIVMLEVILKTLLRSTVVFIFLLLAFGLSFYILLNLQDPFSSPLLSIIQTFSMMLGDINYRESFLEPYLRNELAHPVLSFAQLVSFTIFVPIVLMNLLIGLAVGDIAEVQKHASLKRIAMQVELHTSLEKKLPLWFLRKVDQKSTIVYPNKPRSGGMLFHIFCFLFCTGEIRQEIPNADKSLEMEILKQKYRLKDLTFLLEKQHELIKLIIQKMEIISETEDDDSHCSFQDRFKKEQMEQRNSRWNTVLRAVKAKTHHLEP
- METHOD: TRPA1 antagonist FLIPR assay (functional, HEK293 cell-based)
- MEASUREMENT_PARAMETERS: 10 µM
MEASURED_QUANTITY: TRPA1 Inhibition (% of control)

// lookup TRPA1 Inhibition (% of control) for COc1nc2c(c(=O)n(C)c(=O)n2C)n1CC(=O)Nc1ccc(C(C)(C)C)cc1
74.9 % of control

Similarly, CC(C)c1ccc(NC(=O)Cn2cnc3c2c(=O)n(C)c(=O)n3C)cc1 [HC-030031, reference compound] ?
91.8 % of control

Similarly, Cn1c(=O)c2c(nc(NCc3ccco3)n2CCCC(=O)NN=Cc2ccc(O)cc2O)n(C)c1=O ?
12.4 % of control

Similarly, CCCCOc1nc2c(c(=O)n(C)c(=O)n2C)n1CCCC(=O)Nc1cc(C(C)(C)C)ccc1O ?
12.3 % of control

###

- SYSTEM_NAME: PDE4A (Homo sapiens, UniProt P27815)
- Construct: purchased SignalChem
- Sequence (P27815 whole entry): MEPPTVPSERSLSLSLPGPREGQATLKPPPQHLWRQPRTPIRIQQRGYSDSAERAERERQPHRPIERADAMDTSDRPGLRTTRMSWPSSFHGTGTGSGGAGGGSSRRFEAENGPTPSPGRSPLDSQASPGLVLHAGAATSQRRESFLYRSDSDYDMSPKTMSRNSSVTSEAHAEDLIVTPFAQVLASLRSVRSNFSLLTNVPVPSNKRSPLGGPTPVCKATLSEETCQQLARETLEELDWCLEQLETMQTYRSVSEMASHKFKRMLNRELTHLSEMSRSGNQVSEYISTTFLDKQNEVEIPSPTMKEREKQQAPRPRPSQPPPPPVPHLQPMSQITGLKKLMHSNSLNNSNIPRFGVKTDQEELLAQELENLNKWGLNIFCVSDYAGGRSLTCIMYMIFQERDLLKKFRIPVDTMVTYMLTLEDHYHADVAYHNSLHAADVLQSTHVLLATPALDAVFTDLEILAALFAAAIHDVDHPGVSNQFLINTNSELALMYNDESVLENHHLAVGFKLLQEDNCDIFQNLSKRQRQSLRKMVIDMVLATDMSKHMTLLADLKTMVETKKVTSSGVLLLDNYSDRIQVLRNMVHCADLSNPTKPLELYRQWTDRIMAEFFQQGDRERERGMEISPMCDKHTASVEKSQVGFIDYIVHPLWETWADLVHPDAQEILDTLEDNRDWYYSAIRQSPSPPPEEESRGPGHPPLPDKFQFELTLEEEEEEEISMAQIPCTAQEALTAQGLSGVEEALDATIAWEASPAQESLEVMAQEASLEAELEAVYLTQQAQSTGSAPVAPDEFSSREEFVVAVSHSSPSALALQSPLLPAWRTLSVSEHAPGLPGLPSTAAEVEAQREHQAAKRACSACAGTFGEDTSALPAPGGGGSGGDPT
- METHOD: PDE-Glo assay, human recombinant PDE4A
- Format: biochemical
- MEASUREMENT_PARAMETERS: read-out: PDE-IC50 4A
Provide the reported IC50 of each item.
The answer should read as a number with its unit following.

// lookup IC50 for CC(C)Cn1c(=O)n(C)c(=O)c2[nH]cnc21 [IBMX, reference compound]
16.4 µM

Similarly, COc1nc2c(c(=O)n(C)c(=O)n2C)n1CC(=O)Nc1ccc(C(C)(C)C)cc1 ?
58.1 µM

Similarly, CCCCOc1nc2c(c(=O)n(C)c(=O)n2C)n1CCCC(=O)Nc1cc(C(C)(C)C)ccc1O ?
1.59 µM

Similarly, Cn1c(=O)c2c(nc(NCc3ccco3)n2CCCC(=O)NN=Cc2ccc(O)cc2O)n(C)c1=O ?
4.75 µM

###

Provide the reported IC50 of each item.
- SYSTEM_NAME: PDE1A (Homo sapiens, UniProt P54750)
- Sequence (P54750 whole entry): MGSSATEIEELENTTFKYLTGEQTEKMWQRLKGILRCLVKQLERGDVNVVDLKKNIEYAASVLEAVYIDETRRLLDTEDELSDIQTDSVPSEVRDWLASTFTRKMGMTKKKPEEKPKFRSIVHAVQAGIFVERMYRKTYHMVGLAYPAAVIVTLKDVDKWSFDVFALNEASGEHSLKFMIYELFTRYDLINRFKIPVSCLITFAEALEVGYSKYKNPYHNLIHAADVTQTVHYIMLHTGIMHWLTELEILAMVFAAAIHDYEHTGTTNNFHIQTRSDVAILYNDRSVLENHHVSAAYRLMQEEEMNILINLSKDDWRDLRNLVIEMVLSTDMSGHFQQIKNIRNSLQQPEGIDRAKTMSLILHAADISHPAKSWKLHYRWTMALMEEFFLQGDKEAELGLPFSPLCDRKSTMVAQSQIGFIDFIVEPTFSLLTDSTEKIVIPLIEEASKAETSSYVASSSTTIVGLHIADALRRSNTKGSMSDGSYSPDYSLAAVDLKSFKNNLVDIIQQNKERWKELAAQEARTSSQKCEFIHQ
- METHOD: PDE-Glo assay, human recombinant PDE1A
- MEASUREMENT_PARAMETERS: n.a. = not active; read-out: PDE-IC50 1A
- Procedure: Inhibitory activities of the investigated compounds against various subtypes of human recombinant (hr)PDEs, namely PDE1A, PDE1B, PDE1C, PDE3A, PDE3B, PDE4A, PDE4B, PDE4D, PDE7A, and PDE8A were assessed using a PDE-Glo^TM Assay Kit (Promega, Madison, WI, USA) according to the protocol provided by the manufacturer. […] Finally, 10 µL of PDE-Glo kinase reagent was added, and luminescence was measured using the POLARstar Omega plate reader (BMG LABTECH, Ortenberg, Germany). […]
Note: unit µM is implicit; provide only the numeric part.

Please state recorded IC50 (tested on PDE1A (Homo sapiens, UniProt P54750)) of CC(C)Cn1c(=O)n(C)c(=O)c2[nH]cnc21 [IBMX, reference compound]
0.11

Similarly, Cn1c(=O)c2c(nc(NCc3ccco3)n2CCCC(=O)NN=Cc2ccc(O)cc2O)n(C)c1=O ?
7.24
